For each record, write down the corresponding apparent KD of MS2 coat protein.
# System: MS2 coat protein
# protocol summary: apparent KD of MS2 coat protein; designed switch direction (-1 OFF switch, 1 ON switch): -1; higher = weaker reporter binding
# assay setup: input ligand: none
One number for each entry, in nM.

sequence text	tested target	unit name	reported measurement
UUUUCAUAUGAAGGAUAUACUUAACAUGAGGAUCACCCAUGUGGUGUUGUGAGUGAGUGAGUUUAGUAGAAGGUCAAUUCUUUU [JMF's solution 90] (Eterna round: R96, puzzle: Exclusion NG 2)	MS2 coat protein	nM	351
UAUGGUUAAGUCAGGAUAUGCACGCAGAUUACAAUGCAGAAGGGACAUGAGGAUCACCCAUGUACACUCGUGUU [Ex4 #80] (Eterna round: R97, puzzle: Brourd's mod of Exclusion 4)	MS2 coat protein	nM	31.8

Next sequence, please.
Inquiry: Fill blank: measured apparent KD of MS2 coat protein of the sequence GCACGGAUGGUAGGAUAUCUGUGCGAUUAGCUCAGAGAAGGACCACAUGAGGAUCACCCAUGUACCUCAAUUAACCUUCCGUGC [Eli exng1 - 021] (Eterna round: R96, puzzle: Exclusion NG 1) is ____.
Reply text: 17.6

====

# Test system: MS2 coat protein
# protocol summary: apparent KD of MS2 coat protein; higher = weaker reporter binding
# assay setup: Eterna round: R107; input ligand: arginine 13.2 mM
Returns one of Y or N; Y when apparent KD of MS2 coat protein is >= 40 nM.

sequence text	tested target	group label
UCGUAGCUAGGAAGGAGCGCAUACUUCACAUGAGGAUCACCCAUGUCGAGACGUGAGUCAGUGCAGGUAGGUCGCCUAGCUAUGA [Same State - Arginine B (Freestyle 26)]	MS2 coat protein	N

Inquiry: # bool: apparent KD of MS2 coat protein of GGAUGGAACUCGGCCGCCACUGGUGAUCCUAAUGUACAUGAGGAUCACCCAUGUACAUGAGAAGAUAGGACCGGGAGAUAACAUG [V5] >= 40 nM
Reply text: N

Inquiry: Entry GGCCAUGGAAACAUGGCGGCGGCAUAUGCGCGAGGACCGGUACGGCCGCCACUCGGGCAACAUGAGGAUCACCCAUGUUCCUCAU [ETA NP+V+V2 #24 +-Same Structure] : is its apparent KD of MS2 coat protein no less than 40 nM?
Reply text: Y

Inquiry: Does apparent KD of MS2 coat protein meet or surpass 40 nM for UCUACAUGAGGAUCACCCAUGUGCCAUGAUACCAGACAUGAAAAUGUCCCUUGGCAGCAUGGGUAGCGCAUCCGAAAGGAUGCGU [#06 SameState-TheophyllineA] ?
Reply text: Y

Inquiry: Check if apparent KD of MS2 coat protein >= 40 nM (inclusive). Item: AGCCACUCGAGUGAUCCUCACGAGUGGCUACGAGGACCGGUACGGCCGCCACUCGAAUUAACAUGAGGAUCACCCAUGUAAUCUC [Brourdmod06]
Reply text: N

Inquiry: Identify whether the reported apparent KD of MS2 coat protein of the following sequence is 40 nM or greater: AGUGAUGACCGAAGGAGCGCGGGAAACAUGAGGAUCACCCAUGUACUCCUCAGUGUUAUAACGCAGGUAGGUCGCGGUUAUGGCU [X-ArgiB-ms2@26]
Reply text: Y

====

# Test system: MS2 coat protein
# protocol summary: apparent KD of MS2 coat protein; higher = weaker reporter binding
# assay setup: Eterna round: R107; input ligand: theophylline 20 uM
Tag: Y if measured apparent KD of MS2 coat protein is not below 60 nM, N if it is.

sequence text	group label
ACUAGAGGUGGAAGGAGCGGGAGACAUGAGGAUCACAUGAGGAUCACCCAUGUAGGAUCAUCCCAGGUAGGUCGCCAUGUCGAAA [,mmlmullin]	Y
UCUACAUGAGGAUCACCCAUGUGCCAUGAUACCAGACAUGAAAAUGUCCCUUGGCAGCAUGGGUAGCGCAUCCGAAAGGAUGCGU [#06 SameState-TheophyllineA]	Y
AACGUAUACAGAAGGAGCGUGAAUUAUUUUAUUUUUUUAUAAACAUGAGGAUCACCCAUGUCACAGGUAGGUCGCUGUAUUCGUA [JR_ExcArginiB_Sub018]	N

Inquiry: apparent KD of MS2 coat protein >= 60 nM for GUAUGGAAACAUACUAGGGUAUCAUGAGAUACCAGUACAGAAAUGUACCCUUGGCAGCUCAAGCAUACAUGAGGAUCACCCAUGU [Ex Theophylline A 7] ?
Reply text: N

Inquiry: Could you verify whether the entry AAACAUGAGGAUCACCCAUGUUGAGGAUCACGAGGACCGGUACGGCCGCCACUCGACAUGAGGAUCACCCAUGUGAGGAUCACCC [Same State - Tryptophan A #1] shows apparent KD of MS2 coat protein of no less than 60 nM?
Reply text: Y
